# System: HT-29
# Experimental protocol: Antiproliferative activity against human HT-29 cells at 10 uM after 72 hrs by MTS assay
# Type: functional
# Experimental conditions: HT-29, 72 h
// reported inhibition at 10 µM for each item listed
Report the figure in % without appending any unit label.

Answered cases to consult:
{"columns": ["Chem smiles", "Reported"],
 "data": [
  ["COc1ccc(-c2nnc3[nH]c(=O)c4ccccc4n23)cc1", 0],
  ["COc1ccc(-c2nnc3n(C)c(=O)c4ccccc4n23)cc1O", 71],
  ["COc1cc(-c2nnc3n(C)c(=O)c4ccccc4n23)ccc1O", 0],
  ["COc1cc(-c2nnc3[nH]c(=O)c4ccccc4n23)ccc1O", 0]
]}

inhibition at 10 µM for COc1cc(-c2nnc3n(C)c(=O)c4ccccc4n23)cc(OC)c1OC ?
0

inhibition at 10 µM for COc1ccc(-c2nnc3n(C)c(=O)c4ccccc4n23)cc1N ?
95
